Entries and their measured cell viability follow.
- Tested on: HL-60
- Run description: cell viability (% survival relative to DMSO control); higher = less cytotoxic
- Condition description: 10 µM; 72 h; co-treatment: DMSO vehicle
Enter your answer as a number in %; do not include the unit.

CC1Cc2ccccc2N1NC(=O)c1ccc(Cl)c(S(N)(=O)=O)c1 (centres undefined) [Indapamide] ... 103
O=C(C(=O)c1ccc(Br)cc1)c1ccc(Br)cc1 ... 101
OCC(CO)N[C@H]1C[C@](O)(CO)[C@@H](O)[C@H](O)[C@H]1O ... 99.5

Request body: readout cell viability, system HL-60, query Cl.OC[C@H]1NC[C@H](O)[C@@H](O)[C@H]1O . Return the value.
95.4

Ref: the supplement of paper PMC8671470
